Reported pIC50 values are given for each entry in this list.
- Test system: NF-κB pathway (SEAP) in THP1-Dual cells
- EXPERIMENT NOTES: THP-1 Dual cell SEAP assay (L18-MDP stimulated)
- Format: cell-based
- CONDITION CONTEXT: Homo sapiens, THP1-Dual, read-out: NFkB THP1 IC50
pIC50: −log10 of the molar value.

Look over these answered cases.
* CCCS(=O)(=O)Nc1cc(-c2cnc3cc(OC)c(C(=O)N(C)C)cn23)cc(OC)c1OC | 6.00 to 6.60
* COc1cc2ncc(-c3cc(F)nc(NCC[C@@H]4CNC(=O)C4)c3)n2cc1S(=O)(=O)C(C)(C)C (single isomer, unassigned) | > 7.30
* COc1cc2ncc(-c3cc(N)c(OC)c(OC)c3)n2cc1S(=O)(=O)C(C)(C)C | < 6.00

Which pIC50 value belongs to CCCS(=O)(=O)Nc1cc(-c2cnc3cc(OC)c(S(=O)(=O)C(C)(C)C)cn23)cc(F)c1OC ?
> 7.30

Repeat with CCCS(=O)(=O)Nc1cc(-c2cnc3cc(OC)c(S(=O)(=O)C(C)(C)C)cn23)cc(OC(F)F)n1
6.00 to 6.60

Repeat with COc1cc2ncc(-c3ccc(F)c(N)c3)n2cc1S(=O)(=O)C(C)(C)C
< 6.00

Repeat with COc1cc2ncc(-c3cc(F)nc(NCc4ccccc4)c3)n2cc1S(=O)(=O)C(C)(C)C
> 7.30

----------
- System: NF-κB pathway (SEAP) in THP1-Dual cells
- EXPERIMENT NOTES: THP-1 Dual cell SEAP assay (L18-MDP stimulated)
- Format: cell-based
- CONDITION CONTEXT: Homo sapiens, THP1-Dual, read-out: NFkB THP1 IC50
Reported IC50 values are given for each entry in this list.

Look over these answered cases.
- COc1cc2ncc(-c3cc(N)c(OC)c(C#N)c3)n2cc1S(=O)(=O)C(C)(C)C: > 1000 nM
- CCCS(=O)(=O)Nc1cc(-c2cnn3ccc(S(=O)(=O)C(C)(C)C)cc23)cc(OC)c1OC: 50 to 250 nM
- COc1cc2ncc(-c3cccc(S(C)(=O)=O)c3)n2cc1S(=O)(=O)C(C)(C)C: > 1000 nM
- COc1cc2ncc(-c3cc(N)nc(F)c3)n2cc1S(=O)(=O)C(C)(C)C: < 50 nM
- COc1cc2ncc(-c3cc(F)c(OC)c(NCCCO)c3)n2cc1S(=O)(=O)C(C)(C)C: 50 to 250 nM
- COc1cn2ncc(-c3cc(Cl)c(N)nc3F)c2cc1S(=O)(=O)C(C)(C)C: 50 to 250 nM

Which IC50 value belongs to COc1cc2ncc(-c3cc(NCCCO)cc(F)n3)n2cc1S(=O)(=O)C(C)(C)C ?
250 to 1000 nM

Repeat with COc1cc2ncc(-c3ccc(N)nc3C#N)n2cc1S(=O)(=O)C(C)(C)C
> 1000 nM

----------
Reported IC50 values are given for each entry in this list.
- TEST SYSTEM: GST-RIPK2 fusion protein (human RIPK2 amino acids 1-310) (Homo sapiens (Human), UniProt O43353)
- Sequence (O43353 1-310): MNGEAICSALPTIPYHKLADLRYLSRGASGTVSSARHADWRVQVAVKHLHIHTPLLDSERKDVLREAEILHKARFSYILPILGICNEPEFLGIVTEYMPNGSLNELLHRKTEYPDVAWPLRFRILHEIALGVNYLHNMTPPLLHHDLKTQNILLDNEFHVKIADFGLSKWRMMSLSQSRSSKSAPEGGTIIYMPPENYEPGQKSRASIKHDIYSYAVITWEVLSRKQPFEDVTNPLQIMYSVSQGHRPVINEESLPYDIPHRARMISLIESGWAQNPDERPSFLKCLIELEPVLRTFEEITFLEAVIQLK
- EXPERIMENT NOTES: RIPK2 binding competition assay (TR-FRET, Tracer 199)
- CONDITION CONTEXT: read-out: RIPK2 IC50; RIPK2 binding competition assay

Look over these answered cases.
• COc1cc2ncc(-c3cc(F)nc(NC4CCC4)c3)n2cc1S(=O)(=O)C(C)(C)C = < 1 nM
• COc1cc2ncc(-c3cc(F)nc(NCC4CCN(C(C)=O)CC4)c3)n2cc1S(=O)(=O)C(C)(C)C = < 1 nM
• COc1cc2ncc(-c3ccc(OC(F)(F)F)c(N)n3)n2cc1S(=O)(=O)C(C)(C)C = > 20 nM
• COc1cc2ncc(-c3ccc(N)nc3OC)n2cc1S(=O)(=O)C(C)(C)C = > 20 nM
• CCCS(=O)(=O)N(C)c1cc(-c2cnc3cc(OC)c(S(=O)(=O)C(C)(C)C)cn23)cc(OC)c1C = > 20 nM
• CC(C)(C)S(=O)(=O)c1ccn2ncc(-c3ccc(N)nc3)c2c1 = > 20 nM
• COc1cc2ncc(-c3cc(N)cc(S(C)(=O)=O)c3)n2cc1S(=O)(=O)C(C)(C)C = > 20 nM

# context switch: different compound, same IC50
Which IC50 value belongs to CCS(=O)(=O)Nc1cccc(-c2cnc3cc(OC)c(S(=O)(=O)C(C)(C)C)cn23)c1 ?
2.5 to 20 nM
